This collection of values is drawn from paper doi:10.1101/2025.07.21.665923.

Target: T1, full-length human NHERF1 (human, UniProt O14745 1-358)
T1 sequence (looked up): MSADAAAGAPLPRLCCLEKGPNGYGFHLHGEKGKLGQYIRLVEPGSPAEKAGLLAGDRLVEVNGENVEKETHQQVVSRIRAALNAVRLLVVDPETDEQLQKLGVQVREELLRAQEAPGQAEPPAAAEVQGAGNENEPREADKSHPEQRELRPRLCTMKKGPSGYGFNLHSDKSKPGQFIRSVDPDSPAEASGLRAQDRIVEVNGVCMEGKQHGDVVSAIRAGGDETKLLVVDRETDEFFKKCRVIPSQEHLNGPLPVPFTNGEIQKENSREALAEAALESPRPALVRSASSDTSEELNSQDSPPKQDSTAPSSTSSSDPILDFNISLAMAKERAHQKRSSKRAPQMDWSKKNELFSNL
Assay: fluorescence polarisation
Where no end group is shown, it is not given here. TAMRA = tetramethylrhodamine
ASSAY ENDPOINT: Kd (µM)
Only the number, expressed in µM, is required.

## Input May I ask what Kd has been recorded for {TAMRA}-SPRLALPAHHNATRL [NaPi-IIa peptide (15 C-terminal residues of NaPi-IIa), TAMRA-labelled] ?
## Output 4
